src = ChEMBL document CHEMBL1139369

molecules and their reported AUC(0-t) at 6 h
- assayDetails: AUC (0 to 6 hrs) in rat at 10 mg/kg, po
- Assay type: ADME, organism-based, Plasma
- Parameters: time < 6 hr, dose 10 mg/kg, route oral
- condition: plasma
assayMetric: AUC(0-t) at 6 h (µM·h)

INSERT INTO measurements (molecule, assaymetric, unitname, measurednumber) VALUES
  ('C=CCNC(=O)C(=O)[C@@H]1CCCCCCCCC[C@H](NC(=O)N[C@H](CN2C(=O)c3ccccc3C2=O)C(C)(C)C)C(=O)N2CC3C([C@H]2C(=O)N1)C3(C)C (single isomer, unassigned)', 'AUC(0-t) at 6 h', 'µM·h', 1.2),
  ('C=CCNC(=O)C(=O)[C@@H]1CCCCCCCCC[C@H](NC(=O)N[C@H](CN2Cc3sccc3S2(=O)=O)C(C)(C)C)C(=O)N2C[C@@H]3[C@H]([C@H]2C(=O)N1)C3(C)C', 'AUC(0-t) at 6 h', 'µM·h', 0.84),
  ('C=CCNC(=O)C(=O)[C@@H]1CCCCCCCCC[C@H](NC(=O)N[C@H](CN2CCC(C)(C)CC2=O)C(C)(C)C)C(=O)N2C[C@@H]3[C@H]([C@H]2C(=O)N1)C3(C)C', 'AUC(0-t) at 6 h', 'µM·h', 1.5),
  ('C=CCNC(=O)C(=O)[C@@H]1CCCCCCCCC[C@H](NC(=O)N[C@H](CN2C(=O)CN(C)CC2=O)C(C)(C)C)C(=O)N2CC3C([C@H]2C(=O)N1)C3(C)C (single isomer, unassigned)', 'AUC(0-t) at 6 h', 'µM·h', 0.28),
  ('C=CCNC(=O)C(=O)[C@@H]1CCCCCCCCC[C@H](NC(=O)N[C@H](CN(C)S(=O)(=O)c2ccccn2)C(C)(C)C)C(=O)N2CC3C([C@H]2C(=O)N1)C3(C)C (single isomer, unassigned)', 'AUC(0-t) at 6 h', 'µM·h', 0.84);

###

- assayDetails: Binding affinity to HCV NS3 protease
- Design: species or system Hepacivirus hominis
assayMetric: Ki (nM)

INSERT INTO assay_data (molecule, measurednumber) VALUES
  ('CC(C)[C@H](NC(=O)N[C@H]1CCCCCCCCC[C@@H](C(=O)C(N)=O)NC(=O)[C@@H]2C3C(CN2C1=O)C3(C)C)C(=O)C1CC1 (single isomer, unassigned)', 11),
  ('C=CCNC(=O)C(=O)[C@@H]1CCCCCCCCC[C@H](NC(=O)N[C@H](CN(C)S(=O)(=O)N(C)C)C(C)(C)C)C(=O)N2C[C@@H]3[C@H]([C@H]2C(=O)N1)C3(C)C', 13),
  ('CC1(C)C2CN3C(=O)[C@@H](NC(=O)N[C@H](C(=O)C4CC4)C4CCCCC4)CCCCCCCCC[C@@H](C(=O)C(N)=O)NC(=O)[C@@H]3C21 (single isomer, unassigned)', 11);

###

- assayDetails: Binding affinity to HCV NS3 protease
- Set-up: species or system Hepacivirus hominis
molecules and their reported Ki
assayMetric: Ki (nM)

INSERT INTO measurements (molecule, assaymetric, measurednumber) VALUES
  ('C=CCNC(=O)C(=O)[C@@H]1CCCCCCCCC[C@H](NC(=O)N[C@H](CN(C)S(=O)(=O)c2ccccn2)C(C)(C)C)C(=O)N2CC3C([C@H]2C(=O)N1)C3(C)C (single isomer, unassigned)', 'Ki', 7),
  ('C=CCNC(=O)C(=O)[C@@H]1CCCCCCCCC[C@H](NC(=O)N[C@H](CN2C(=O)CC(C)(C)CC2=O)C(C)(C)C)C(=O)N2CC3C([C@H]2C(=O)N1)C3(C)C (single isomer, unassigned)', 'Ki', 2),
  ('CCNC(=O)C(=O)[C@@H]1CCCCCCCCC[C@H](NC(=O)N[C@H](CN(C)S(=O)(=O)c2cccs2)C(C)(C)C)C(=O)N2CC3C([C@H]2C(=O)N1)C3(C)C (single isomer, unassigned)', 'Ki', 10);
